# Test system: Candida albicans
# measurement protocol: In vitro fungicidal activity test (MFC, minimum fungicidal concentration)
# Format: cell-based
# study conditions: Candida albicans; minimum concentration with no fungal growth, Sabouraud dextrose agar plate, 35° C., 48 hours, naked eye
Measured MFC values are reported for all entries that follow.

Here's what some known entries look like.
# molecule, value observed
rows = [
    ("COc1ncc(NNC(=O)c2cc(-c3ccc(Cl)cc3)c(=O)n(C)c2)cc1F [Example 38]", "0.1 µg/mL"),
    ("COc1ncc(NNC(=O)c2cc(-c3ccc(C(F)(F)F)cc3)c(=O)n(C)c2)cc1F [Example 39]", "0.2 µg/mL"),
]

Continue with the next molecule.
Q) Given the molecule COc1ncc(NNC(=O)c2cc(-c3ccc(C#N)cc3)c(=O)n(C)c2)cc1F [Example 40] , write its reported MFC.
A) 0.2 µg/mL

Value source: patent US9617216B2
